Read-out: Vascular cell adhesion molecule 1 (VCAM1), VCAM1 (gene 7412)
Test Description: BSK_hDFCGF_VCAM1: BioMAP Diversity Plus: hDFCGF Assay for Vascular cell adhesion molecule 1 (VCAM1) Biomarker Activity (AID 2283065)
Cond: primary human foreskin fibroblasts; actives raise or lower the signal
Experimental: BSK_hDFCGF is a cell-based, multiplexed-readout assay that uses foreskin fibroblast, a human skin primary cell, with measurements taken at 24 hours after chemical dosing in a 96-well plate.BSK_hDFCGF_VCAM1 is an assay component measured in the BSK_hDFCGF assay. It measures VCAM-1 antibody related to regulation of gene expression using ELISA technology.Data from the assay component BSK_hDFCGF_VCAM1 was analyzed into 1 assay endpoint. […]
Active and inactive are the calls of the source. How the source made its calls: active means hit-call score of the fitted dose curve at least 0.9, where 1 is the maximum; inactive means score below 0.9.
Observed Property: outcome

{"columns": ["Chemical String", "Result"],
 "data": [
  ["Oc1ccc(Cl)cc1Cl", "inactive"],
  ["C=CC(N)=O", "inactive"],
  ["O=S(=O)(O)C(F)(F)C(F)(F)C(F)(F)C(F)(F)C(F)(F)C(F)(F)F", "inactive"]
]}

====

System: Nuclear receptor subfamily 1 group I member 2 (Mus musculus)
Test Description: ATG_mPXR_XSP1: Attagene TRANS-FACTORIAL Multi-Species (XSP1) HepG2 Assay for mouse Pregnane X Receptor (PXR) (AID 2283803)
Records with an inconclusive call do not appear. Activity calls are given as the source filed them. How the source made its calls: active means hit-call score of the fitted dose curve at least 0.9, where 1 is the maximum; inconclusive means response in the unintended direction; inactive means score below 0.9.
One label from this list, please: label 1 = active, label 0 = inactive

# example entries with known answers
{"columns": ["Compound", "Cat"],
 "data": [
  ["CC(C)(O)C(=O)Nc1ccc([N+](=O)[O-])c(C(F)(F)F)c1", "label 0"],
  ["C[C@]12CCC(=O)C=C1CC[C@@H]1[C@@H]2CC[C@@]2(C)[C@H]1CC[C@]2(C)O", "label 0"],
  ["ClC(Cl)=C(c1ccc(Cl)cc1)c1ccc(Cl)cc1", "label 0"]
]}

Proceed to the following item.
Task item: Hi, sorry to bother you, what did the test record for Clc1ccc(C(c2ccccc2Cl)C(Cl)(Cl)Cl)cc1 (centres undefined) ?
Reply: label 1

====

Test Description: CEETOX_H295R_OHPREG: CeeTox H295R High-throughput Steroidogenesis Assay for OH-Pregnenolone (OHPREG) (AID 2283434)
Cond: actives raise or lower the signal
Active and inactive are the calls of the source. The calls were made as follows: active = hit-call score of the fitted dose curve at least 0.9, where 1 is the maximum; inactive = score below 0.9.
Give one outcome, nothing more. List: Yes (active), No (inactive)

# count of solved cases: 3
{"columns": ["Compound", "Cat"],
 "data": [
  ["Cc1ccccc1CO[C@@H]1C[C@@]2(C(C)C)CC[C@]1(C)O2", "Yes"],
  ["Cc1cc(-c2ccc(N)c(C)c2)ccc1N", "No"],
  ["Oc1ccc(Cl)cc1Cl", "No"]
]}

Task item: What outcome does the record of this test show for CCC(=O)O[C@H]1CC[C@H]2[C@@H]3CCC4=CC(=O)CC[C@]4(C)[C@H]3CC[C@]12C ?
Reply: Yes

====

System: human Peroxisome Proliferator-activated Receptor alpha (PPARa), PPARA (gene 5465) (UniProt Q07869)
Sequence (Q07869 whole entry, looked up): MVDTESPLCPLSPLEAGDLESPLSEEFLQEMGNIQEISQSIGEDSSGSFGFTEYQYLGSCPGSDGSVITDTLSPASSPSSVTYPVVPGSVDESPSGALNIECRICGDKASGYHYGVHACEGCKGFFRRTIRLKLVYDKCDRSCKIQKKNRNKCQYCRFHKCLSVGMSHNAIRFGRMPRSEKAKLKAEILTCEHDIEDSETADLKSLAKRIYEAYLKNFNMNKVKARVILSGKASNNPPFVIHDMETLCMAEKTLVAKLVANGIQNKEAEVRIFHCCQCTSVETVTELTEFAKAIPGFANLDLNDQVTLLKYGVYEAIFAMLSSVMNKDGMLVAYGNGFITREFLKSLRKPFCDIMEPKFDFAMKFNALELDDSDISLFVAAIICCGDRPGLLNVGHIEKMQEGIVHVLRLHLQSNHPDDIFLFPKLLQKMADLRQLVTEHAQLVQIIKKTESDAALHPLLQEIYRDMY
Test Description: ATG_PPARa_TRANS: Attagene TRANS-FACTORIAL HepG2 Assay for human Peroxisome Proliferator-activated Receptor alpha (PPARa) (AID 2283001)
Results filed as inconclusive are left out. Activity calls are given as the source filed them. Rule for the calls: active = hit-call score of the fitted dose curve at least 0.9, where 1 is the maximum; inconclusive = response in the unintended direction; inactive = score below 0.9.
Classes to choose from: True (active), False (inactive)

Previously resolved entries follow.
{"columns": ["Molecule", "Cat"],
 "data": [
  ["O=C(N[C@H]1CN2CCC1CC2)c1cc2ccoc2cn1", "False"],
  ["Cc1cc(-c2ccc(N)c(C)c2)ccc1N", "False"],
  ["Cc1ccc(O)c(C)c1", "False"],
  ["CC#Cc1cc(C)nc(Nc2ccccc2)n1", "True"],
  ["ClC1=C(Cl)[C@]2(Cl)[C@@H]3[C@H]4C[C@H]([C@@H]5O[C@H]45)[C@@H]3[C@@]1(Cl)C2(Cl)Cl", "False"],
  ["CN(C)CCO", "False"],
  ["CC(C)C(=O)OCC(C)(C)C(OC(=O)C(C)C)C(C)C (configuration not stated)", "False"],
  ["Cc1cc2c3c(c1)C(c1ccccc1)=N[C@@H](NC(=O)c1ccncc1)C(=O)N3CC2", "False"]
]}

Task item: Hi, sorry to bother you, what did the test record for CC(C)(c1ccccc1)c1ccc(O)cc1 ?
Reply: False

Task item: How did this test come out for COc1ccc(O)c(C(C)(C)C)c1 ?
Reply: False

Task item: Outcome logged for O=C(NC(=O)c1c(F)cccc1F)Nc1cc(Cl)c(OC(F)(F)C(F)F)c(Cl)c1 in this assay:
Reply: False

Task item: Lab log entry: CCCCCCCCOC(=O)c1ccccc1C(=O)OCCCCCCCC — outcome as called in the assay?
Reply: False

====

System: chicken Estrogen Receptor (ESR1), ESR1 (gene 396099)
Test Description: ATG_chERa_XSP1: Attagene TRANS-FACTORIAL Multi-Species (XSP1) HepG2 Assay for chicken Estrogen Receptor (ESR1) (AID 2283779)
Protocol: ATG_XSP1_multi-species_TRANS is a cell-based, multiplexed assay created by modifying the existing Attagene TRANS-FACTORIAL system to include a panel of nuclear receptors from some or all the following species: human (Homo sapiens), mouse (Mus musculus), frog (Xenopus laevis), zebrafish (Danio rerio), chicken (Gallus gallus), and turtle (Chrysemys picta). The ECOTOX-FACTORIAL format uses HepG2, a human liver cell line, with measurements taken at 24 hours after chemical dosing in a 24-well plate. […]
Records with an inconclusive call do not appear. Activity calls are given as the source filed them. Rule for the calls: active = hit-call score of the fitted dose curve at least 0.9, where 1 is the maximum; inconclusive = response in the unintended direction; inactive = score below 0.9.
Listed next: entries and their corresponding AC50.

A selection of reference data follows.
{"columns": ["Molecule", "System", "AC50"],
 "data": [
  ["CC(C)(c1ccccc1)c1ccc(O)cc1", "chicken Estrogen Receptor (ESR1), ESR1 (gene 396099)", "1980 nM (active)"],
  ["C[C@]12CCC(=O)C=C1CC[C@@H]1[C@@H]2CC[C@@]2(C)[C@H]1CC[C@]2(C)O", "chicken Estrogen Receptor (ESR1), ESR1 (gene 396099)", "1.61 nM (active)"]
]}

Now look at this entry.
Record summary for Clc1ccc(C(c2ccccc2Cl)C(Cl)(Cl)Cl)cc1 (centres undefined) : reported AC50 = 291 nM (active)

====

Test Description: ATG_CMV_CIS: Attagene CIS-FACTORIAL HepG2 Assay for human CMV (Internal Marker) (AID 2282928);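 further: endpoint acts as a background internal control marker rather than a target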
Cond: HepG2 CMV promoter reporter, transcription factor profiling; actives raise or lower the signal
Calls of active or inactive are those of the source. Rule for the calls: active = hit-call score of the fitted dose curve at least 0.9, where 1 is the maximum; inactive = score below 0.9.
Outcomes you can answer with include only these: yes (1) = active, no (0) = inactive

As a guide, the following entries are already answered.
{"columns": ["Molecule", "Cat"],
 "data": [
  ["Cc1ccccc1O", "no (0)"],
  ["CCNc1nc(NC(C)C)nc(SC)n1", "no (0)"],
  ["Nn1cnnc1", "no (0)"]
]}

Task item: # fetch the recorded call for C[C@]12CCC(=O)C=C1CC[C@@H]1[C@@H]2CC[C@]2(C)C(=O)CC[C@@H]12 here
Reply: no (0)

Task item: Which outcome was assigned to CCCN(CCC)N=O in this test?
Reply: no (0)

Task item: # outcome recorded in this test, key = C=CC(N)=O
Reply: no (0)

Task item: Assay outcome for Oc1ccc(Cl)cc1Cl : what was it?
Reply: no (0)

Task item: // outcome(item) with item = C[C@]12CCC(=O)C=C1CC[C@@H]1[C@@H]2CC[C@@]2(C)[C@H]1CC[C@]2(C)O
Reply: no (0)

====

Read-out: Insulin Like Growth Factor 1 (IGF1), IGF1 (gene 3479)
Test Description: LTEA_HepaRG_IGF1: Life Technologies and Expression Analysis (LTEA) Assay for Insulin Like Growth Factor 1 (IGF1) using HepaRG (AID 2283506)
Cond: mRNA level, 48 h; actives raise or lower the signal
Activity calls are given as the source filed them. The calls were made as follows: active = hit-call score of the fitted dose curve at least 0.9, where 1 is the maximum; inactive = score below 0.9.
Outcome field: choose from active, inactive

{"columns": ["Chemical String", "Cat"],
 "data": [
  ["O=C(NC(=O)c1c(F)cccc1F)Nc1cc(Cl)c(OC(F)(F)C(F)F)c(Cl)c1", "inactive"],
  ["CC(C)(c1ccccc1)c1ccc(O)cc1", "inactive"],
  ["NS(=O)(=O)C(F)(F)C(F)(F)C(F)(F)C(F)(F)C(F)(F)C(F)(F)C(F)(F)C(F)(F)F", "active"],
  ["C[C@]12CCC(=O)C=C1CC[C@@H]1[C@@H]2CC[C@@]2(C)[C@H]1CC[C@]2(C)O", "active"],
  ["O=C(O)C(F)(F)C(F)(F)C(F)(F)C(F)(F)C(F)(F)C(F)(F)C(F)(F)C(F)(F)C(F)(F)F", "active"],
  ["ClC1=C(Cl)[C@]2(Cl)[C@@H]3[C@@H]4C[C@@H]([C@H]5O[C@@H]45)[C@@H]3[C@@]1(Cl)C2(Cl)Cl", "active"],
  ["CCC(=O)O[C@H]1CC[C@H]2[C@@H]3CCC4=CC(=O)CC[C@]4(C)[C@H]3CC[C@]12C", "inactive"],
  ["CC#Cc1cc(C)nc(Nc2ccccc2)n1", "active"]
]}

Task item: Can you look up the reported call for Oc1ccc(Cl)cc1Cl for me?
Reply: inactive

Task item: Per the assay record, what outcome was assigned to Clc1ccc(C(Cl)(Cl)Cl)cc1 ?
Reply: inactive
